assay: Modified MTT cytotoxicity assay, normal heptical cell line HHL-5; conditions: human, HHL-5 cells (normal hepatic cell line)
# pIC50 per entry
Scale note: pIC50 = -log10(concentration in M).

O=C1/C(=C/c2cccc(C(F)(F)F)c2)CN(S(=O)(=O)c2ccc(F)cc2)C/C1=C\c1cccc(C(F)(F)F)c1 [BAP 17]: 5.46
Cc1ccc(S(=O)(=O)N2C/C(=C\c3cccc(C(F)(F)F)c3)C(=O)/C(=C/c3cccc(C(F)(F)F)c3)C2)cc1 [BAP 14]: 5.03
O=C1/C(=C/c2cccc(C(F)(F)F)c2)CN(S(=O)(=O)c2ccccc2)C/C1=C\c1cccc(C(F)(F)F)c1 [BAP 13]: 5.54

For the compound shown here, O=C1/C(=C/c2cccc(C(F)(F)F)c2)CN(S(=O)(=O)c2ccc(Br)cc2)C/C1=C\c1cccc(C(F)(F)F)c1 [BAP 19] , give the reported pIC50. 4.87

For the compound shown here, N#Cc1ccc(S(=O)(=O)N2C/C(=C\c3ccccc3C(F)(F)F)C(=O)/C(=C/c3ccccc3C(F)(F)F)C2)cc1 [BAP 11] , give the reported pIC50. 4.81

For the compound shown here, Cc1ccc(S(=O)(=O)N2C/C(=C\c3ccccc3C(F)(F)F)C(=O)/C(=C/c3ccccc3C(F)(F)F)C2)cc1 [BAP 5] , give the reported pIC50. 4.60

###

test system: A549; experiment: Modified MTT cytotoxicity assay, A549; conditions: read-out: Cytotoxicity IC50 A549; MTT, non-small cell lung cancer cell line; listed as 29
assayReadout: pIC50
Scale note: pIC50 = -log10(concentration in M).

For the compound shown here, N#Cc1ccc(S(=O)(=O)N2C/C(=C\c3ccc(C(F)(F)F)cc3)C(=O)/C(=C/c3ccc(C(F)(F)F)cc3)C2)cc1 [BAP 29] , give the reported pIC50. 7.09

###

tested on: IL-6; assay: ELISA of IL-6 release in LPS-stimulated RAW264.7 cells; type: cell-based, mouse; settings: BAPs (5 μM) + LPS (1 μg/mL), RAW264.7, ELISA
# Inhibition rate IL-6 per entry
Field: numeric (%). Do not append units.

Reference set, count: 3
O=C1/C(=C/c2ccc(C(F)(F)F)cc2)CN(S(=O)(=O)c2ccc([N+](=O)[O-])cc2)C/C1=C\c1ccc(C(F)(F)F)cc1 [BAP 24]: 57.3
O=C1/C(=C/c2ccccc2C(F)(F)F)CN(S(=O)(=O)c2ccccc2)C/C1=C\c1ccccc1C(F)(F)F [BAP 4]: 70.7
O=C1/C(=C/c2ccc(C(F)(F)F)cc2)CN(S(=O)(=O)c2ccc(F)cc2)C/C1=C\c1ccc(C(F)(F)F)cc1 [BAP 26]: 62.8

Let us move to another entry and its Inhibition rate IL-6.
For the compound shown here, CC(=O)Nc1ccc(S(=O)(=O)N2C/C(=C\c3cccc(C(F)(F)F)c3)C(=O)/C(=C/c3cccc(C(F)(F)F)c3)C2)cc1 [BAP 21] , give the reported Inhibition rate IL-6. 71.6

###

tested on: SMMC-7721; assay: Modified MTT cytotoxicity assay, SMMC-7721; format: cell-based, Human; conditions: MTT, 24 h incubation, three replicates
assayReadout: IC50 (µM)
Field: numeric (µM). Do not append units.

Reference set, count: 3
CC(=O)Nc1ccc(S(=O)(=O)N2C/C(=C\c3ccccc3C(F)(F)F)C(=O)/C(=C/c3ccccc3C(F)(F)F)C2)cc1: 10.9
CC(=O)Nc1ccc(S(=O)(=O)N2C/C(=C\c3ccc(C(F)(F)F)cc3)C(=O)/C(=C/c3ccc(C(F)(F)F)cc3)C2)cc1: 3.1
O=C1/C(=C/c2ccc(C(F)(F)F)cc2)CN(S(=O)(=O)c2ccc(F)cc2)C/C1=C\c1ccc(C(F)(F)F)cc1: 3.1

Let us move to another entry and its IC50.
For the compound shown here, O=C1/C(=C/c2ccc(C(F)(F)F)cc2)CN(S(=O)(=O)c2ccc([N+](=O)[O-])cc2)C/C1=C\c1ccc(C(F)(F)F)cc1 , give the reported IC50. 3.2

###

Tested on: SMMC-7721
Assay: Modified MTT cytotoxicity assay, SMMC-7721
Type: cell-based, Human
Settings: MTT, 24 h incubation, three replicates; listed as 4
Procedure: The HepG2, SMMC-7721, and LO2 cell lines were maintained at 37 °C, 5% humidified CO2, and 95% atmosphere. Dulbecco's Modified Eagle (DMEM) medium containing 10% foetal bovine serum (FBS) was used for culturing the HepG2 cell line; meanwhile, Roswell Park Memorial Institute (RPMI) 1640 medium containing 10% FBS was used for culturing other cell lines (SMMC-7721, LO2). […]
assayReadout: pIC50
Scale note: pIC50 = -log10(concentration in M).

For the compound shown here, O=C1/C(=C/c2ccccc2C(F)(F)F)CN(S(=O)(=O)c2ccccc2)C/C1=C\c1ccccc1C(F)(F)F , give the reported pIC50. 5.09

###

# IC50 per entry
test system: SMMC-7721; assay: Modified MTT cytotoxicity assay, SMMC-7721; format: cell-based, Human; conditions: MTT, 24 h incubation, three replicates
Field: numeric (µM). Do not append units.

O=C1/C(=C/c2ccc(C(F)(F)F)cc2)CN(S(=O)(=O)c2ccc(C(F)(F)F)cc2)C/C1=C\c1ccc(C(F)(F)F)cc1: 1.3
N#Cc1ccc(S(=O)(=O)N2C/C(=C\c3ccc(C(F)(F)F)cc3)C(=O)/C(=C/c3ccc(C(F)(F)F)cc3)C2)cc1: 1.3

Let us move to another entry and its IC50.
For the molecule shown here, CC(=O)Nc1ccc(S(=O)(=O)N2C/C(=C\c3cccc(C(F)(F)F)c3)C(=O)/C(=C/c3cccc(C(F)(F)F)c3)C2)cc1 , give the reported IC50. 5.1

###

tested on: HepG2; assay: Modified MTT cytotoxicity assay, HepG2; format: cell-based, Human; conditions: MTT, 24 h incubation, three replicates; listed as 4; read-out: Cytotoxicity IC50 HepG2
assayReadout: IC50

For HepG2, provide IC50 of O=C1/C(=C/c2ccccc2C(F)(F)F)CN(S(=O)(=O)c2ccccc2)C/C1=C\c1ccccc1C(F)(F)F [BAP 4] please. 9.2 µM

###

# Inhibition rate IL-6 per entry
tested on: IL-6; assay: ELISA of IL-6 release in LPS-stimulated RAW264.7 cells; type: cell-based, mouse; conditions: BAPs (5 μM) + LPS (1 μg/mL), RAW264.7, ELISA
Field: numeric (%). Do not append units.

Cc1ccc(S(=O)(=O)N2C/C(=C\c3ccc(C(F)(F)F)cc3)C(=O)/C(=C/c3ccc(C(F)(F)F)cc3)C2)cc1: 69.2

For the molecule shown here, CC(=O)Nc1ccc(S(=O)(=O)N2C/C(=C\c3ccc(C(F)(F)F)cc3)C(=O)/C(=C/c3ccc(C(F)(F)F)cc3)C2)cc1 , give the reported Inhibition rate IL-6. 70.1

For the molecule shown here, CC(=O)Nc1ccc(S(=O)(=O)N2C/C(=C\c3ccccc3C(F)(F)F)C(=O)/C(=C/c3ccccc3C(F)(F)F)C2)cc1 , give the reported Inhibition rate IL-6. 62.8

###

tested on: A2780; assay: Modified MTT cytotoxicity assay, A2780; details: read-out: Cytotoxicity IC50 A2780; MTT, ovarian cancer cell line
# log10 of IC50 per entry
Please interpret these as log10 of IC50 where IC50 is in µM.

Reference set, count: 8
CC(=O)Nc1ccc(S(=O)(=O)N2C/C(=C\c3cccc(C(F)(F)F)c3)C(=O)/C(=C/c3cccc(C(F)(F)F)c3)C2)cc1: -0.77
O=C1/C(=C/c2ccccc2C(F)(F)F)CN(S(=O)(=O)c2ccccc2)C/C1=C\c1ccccc1C(F)(F)F: 1.73
CC(=O)Nc1ccc(S(=O)(=O)N2C/C(=C\c3ccc(C(F)(F)F)cc3)C(=O)/C(=C/c3ccc(C(F)(F)F)cc3)C2)cc1: -0.89
O=C1/C(=C/c2ccc(C(F)(F)F)cc2)CN(S(=O)(=O)c2ccc(F)cc2)C/C1=C\c1ccc(C(F)(F)F)cc1: -0.53
Cc1ccc(S(=O)(=O)N2C/C(=C\c3ccc(C(F)(F)F)cc3)C(=O)/C(=C/c3ccc(C(F)(F)F)cc3)C2)cc1: -0.80
O=C1/C(=C/c2ccc(C(F)(F)F)cc2)CN(S(=O)(=O)c2ccc([N+](=O)[O-])cc2)C/C1=C\c1ccc(C(F)(F)F)cc1: -0.77
O=C1/C(=C/c2ccccc2C(F)(F)F)CN(S(=O)(=O)c2ccc(C(F)(F)F)cc2)C/C1=C\c1ccccc1C(F)(F)F: -0.48
O=C1/C(=C/c2ccc(C(F)(F)F)cc2)CN(S(=O)(=O)c2ccc(C(F)(F)F)cc2)C/C1=C\c1ccc(C(F)(F)F)cc1: -0.55

For the compound shown here, CC(=O)Nc1ccc(S(=O)(=O)N2C/C(=C\c3ccccc3C(F)(F)F)C(=O)/C(=C/c3ccccc3C(F)(F)F)C2)cc1 , give the reported log10 of IC50. 0.09
